Target: T1, human calcitonin receptor (human, UniProt P30988 25-474)
T1 construct: whole, on cells; also called hCT-R; hCTR
T1 sequence (looked up): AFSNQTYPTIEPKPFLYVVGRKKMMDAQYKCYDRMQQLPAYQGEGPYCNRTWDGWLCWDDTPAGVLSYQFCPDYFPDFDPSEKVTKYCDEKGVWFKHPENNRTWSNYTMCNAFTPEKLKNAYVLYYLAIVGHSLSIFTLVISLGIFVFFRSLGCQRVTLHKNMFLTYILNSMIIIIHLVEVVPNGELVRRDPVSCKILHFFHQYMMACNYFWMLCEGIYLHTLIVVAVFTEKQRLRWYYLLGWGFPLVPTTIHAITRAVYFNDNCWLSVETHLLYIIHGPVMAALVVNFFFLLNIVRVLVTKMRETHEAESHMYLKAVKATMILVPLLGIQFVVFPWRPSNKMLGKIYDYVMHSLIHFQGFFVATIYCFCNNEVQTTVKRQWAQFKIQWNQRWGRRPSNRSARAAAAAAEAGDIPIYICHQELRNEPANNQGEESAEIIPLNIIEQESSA
Experiment: whole-cell competition vs 125I-human calcitonin (Assay VIIa)
Numbered stars: 1 amine (or outer) side, 2 acyl side, 3 side chain; on linkers, the order of the positions; unused ones are H or OH. * marks the point of attachment. C20 diacid = O=C(O)CCCCCCCCCCCCCCCCCCC(=O)*; C18 diacid = O=C(O)CCCCCCCCCCCCCCCCC(=O)*; γGlu = O=C(O)[C@H](CCC(=O)[*:2])N[*:1]; C14 diacid = O=C(O)CCCCCCCCCCCCC(=O)*; AEEA = NCCOCCOCC(=O)O
METRIC: IC50 (nM)

BINDER	METRIC	DISPLAY_UNIT	TEST_VALUE
{C14 diacid}-EASELSTAALGRLSAELHELATLPRTETGPESP-NH2 (also called Ex. #4) [[N-terminal(C14 diacid)]mimylin]	IC50	nM	1.05
{C20 diacid-γGlu-AEEA-AEEA-AEEA}-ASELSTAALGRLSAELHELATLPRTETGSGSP-NH2 (also called Ex. #43) [[N-terminal(C20 diacid-gGlu-3xOEG), des1, 30S, 31G]mimylin]	IC50	nM	0.352
{C18 diacid-γGlu}-ASELTTAVLGRLEAELHELTTLPRTETGTGTP-NH2 [[N-terminal(C18 diacid-gGlu), des1, 6T, 9V, 14E, 21T, 30T, 31G, 32T]mimylin]	IC50	nM	9.15
